These data points were gathered from the supplement of paper PMC10127200.

I'd appreciate it if you could supply Euclidean distance values for the items below.
System: A549
Assay: Euclidean distance of Cell Painting phenotypic profile (signed KS, 77 features) to DMSO centroid (dimensionless distance); 5 or 10 uM (library dependent); higher = stronger phenotypic change vs DMSO (phenoactivity)
Settings: 48 h
Where a name gives a salt, the structure may show the parent alone.
One number for each entry.

Here are 3 molecules together with their reported answers.
{"molecule": "CC(C)(O)[C@H]1CC[C@@](C)([C@H]2[C@@H](O)C[C@@]3(C)[C@@H]4C[C@H](O[C@@H]5O[C@H](CO)[C@@H](O)[C@H](O)[C@H]5O)[C@H]5C(C)(C)[C@@H](O[C@@H]6OC[C@@H](O)[C@H](O)[C@H]6O)CC[C@@]56C[C@@]46CC[C@]23C)O1 [Astragaloside A]", "property": "Euclidean distance", "reading": 3.46}
{"molecule": "Cc1cccc(Nc2nc(-c3ccncc3)cs2)c1", "property": "Euclidean distance", "reading": 3.77}
{"molecule": "N[C@@H](Cc1cc(I)c(Oc2ccc(O)c(I)c2)c(I)c1)C(=O)O [Liothyronine Sodium]", "property": "Euclidean distance", "reading": 0.796}

Go through the items and report each one's Euclidean distance.
1. CCOC(=O)[C@H](CCc1ccccc1)N[C@@H](C)C(=O)N(CC(=O)O)C1Cc2ccccc2C1 [Delapril Hydrochloride]
2. Cc1cccc(C)c1OCC(C)N (stereo not drawn) [Mexiletine HCl]
3. NCc1ccc(S(N)(=O)=O)cc1 [Mafenide Acetate]
4. CSCC[C@H](N)C(=O)O
5. COc1cccc(CCc2ccccc2OCC(CN(C)C)OC(=O)CCC(=O)O)c1 (stereo not drawn) [Sarpogrelate hydrochloride]

1: 1.15; 2: 0.742; 3: 0.744; 4: 0.829; 5: 1.36

---

Test system: FB
Experiment: Euclidean distance of Cell Painting phenotypic profile (signed KS, 77 features) to DMSO centroid (dimensionless distance); 5 or 10 uM (library dependent); higher = stronger phenotypic change vs DMSO (phenoactivity)
Details: 48 h
Counter-ions that a name gives are not always drawn.
property: Euclidean distance

Here are 8 compounds together with their reported answers.
{"compound": "O=C(O)CCC(=O)Nc1ccc(S(=O)(=O)Nc2nccs2)cc1", "Euclidean distance": 1.1}
{"compound": "O=S(=O)(O)CCSSCCS(=O)(=O)O", "Euclidean distance": 1.16}
{"compound": "C[C@@H](O)[C@H]1C(=O)N2C(C(=O)O)=C(S[C@@H]3CN[C@H](C(=O)Nc4cccc(C(=O)O)c4)C3)[C@H](C)[C@H]12 [Ertapenem sodium]", "Euclidean distance": 0.956}
{"compound": "c1ccc(-c2ccc(C(c3ccccc3)n3ccnc3)cc2)cc1 (centres undefined)", "Euclidean distance": 1.17}
{"compound": "Cc1ccc(O)c([C@H](CCN(C(C)C)C(C)C)c2ccccc2)c1 [Tolterodine tartrate]", "Euclidean distance": 1.13}
{"compound": "CN(C)CCN(Cc1ccccc1)c1ccccn1 [Tripelennamine HCl]", "Euclidean distance": 1.05}
{"compound": "O=C(O)CCCN1CCC(O[C@@H](c2ccc(Cl)cc2)c2ccccn2)CC1", "Euclidean distance": 0.639}
{"compound": "CCN(CC)CCNC(=O)c1cc(S(C)(=O)=O)ccc1OC [Tiapride Hydrochloride]", "Euclidean distance": 0.955}

What reported Euclidean distance corresponds to CC(O)(P(=O)(O)O)P(=O)(O)O [Etidronate] on FB?
1.04
